# Test system: Saccharomyces cerevisiae
# Experiment Notes: protein stability index of tFT-peptide fusion (C-terminal peptide) (PSI (0-1 scale)); higher = more stable (slower turnover)
# Settings: genetic background: wild type; temperature: 30 C
Assay Readout: protein stability index
Answer with a bare number; do not write a unit.

Below, each entry is followed by its recorded protein stability index result.
# Sequence Entry, protein stability index
data = [
    ("FLFSCMLYKIDP [YML089C C-terminal 12 aa]", 0.664),
    ("QGKVRLWKLNHY [UTP18 C-terminal 12 aa]", 0.616),
    ("ANCNTADCLEDH [COT1 C-terminal 12 aa]", 0.708),
    ("MNKKHHKPIPFD [RRD2 C-terminal 12 aa]", 0.697),
    ("SPFIPKKRKPRS [SEN1 C-terminal 12 aa]", 0.704),
    ("SNYNNRTTDMPL [PSP2 C-terminal 12 aa]", 0.703),
    ("IIDELQKCHMQE [CDC27 C-terminal 12 aa]", 0.69),
    ("GNAEFAASLLFQ [DDI1 C-terminal 12 aa]", 0.702),
    ("CDSEMFASSKDE [ERI1 C-terminal 12 aa]", 0.74),
    ("LLLLILNECYPA [BUD30 C-terminal 12 aa]", 0.539),
]

Entry SIFSYCIIYFIS [YDR524C-A C-terminal 12 aa] ; protein stability index = 0.111

Entry SKSGSGGCCIIS [RAS2 C-terminal 12 aa] ; protein stability index = 0.711

###

# Test system: Saccharomyces cerevisiae
# Experiment Notes: protein stability index of tFT-peptide fusion (C-terminal peptide) (PSI (0-1 scale)); higher = more stable (slower turnover)
# Settings: genetic background: wild type; temperature: 30 C
Mark 0.0 for protein stability index values under 0.7, and 1.0 for everything at or above.

Check out these entries, answers already filled in.
# Sequence Entry, Qualitative Label
rows = [
    ("RHDSYKSLHSNL", 1.0),
    ("FKVILGEFPVAW", 0.0),
]

# check: protein stability index of `GGGWDWWFGVPG` is greater than or equal to 0.7
1.0

# check: protein stability index of `PPPYPRSTPFVP` is greater than or equal to 0.7
0.0

# check: protein stability index of `SSSVPHFIFLPR` is greater than or equal to 0.7
0.0

# check: protein stability index of `CGVCSAGIFVGG` is greater than or equal to 0.7
1.0

# check: protein stability index of `EKSRSLACQHST` is greater than or equal to 0.7
0.0

# check: protein stability index of `YLGLSAVAILWM` is greater than or equal to 0.7
0.0

# check: protein stability index of `SVLVSVVLFVRS` is greater than or equal to 0.7
0.0

# check: protein stability index of `SLIACQGPIPCG` is greater than or equal to 0.7
0.0

# check: protein stability index of `LLYPSKFCITAI` is greater than or equal to 0.7
0.0

# check: protein stability index of `APARASPPPPPP` is greater than or equal to 0.7
0.0

# check: protein stability index of `PSPTIPSPPPPP` is greater than or equal to 0.7
0.0

# check: protein stability index of `FWCMLLAPFVNV` is greater than or equal to 0.7
0.0

# check: protein stability index of `RLPSAPPRQPTH` is greater than or equal to 0.7
0.0

# check: protein stability index of `RADAPPPTRPEA` is greater than or equal to 0.7
1.0

# check: protein stability index of `SWGLSVSSCFVW` is greater than or equal to 0.7
0.0

# check: protein stability index of `FCVLLFYCFFFF` is greater than or equal to 0.7
0.0

###

# Tested on: Saccharomyces cerevisiae
# Experiment Notes: protein stability index of tFT-peptide fusion (C-terminal peptide) (PSI (0-1 scale)); higher = more stable (slower turnover)
# Settings: genetic background: wild type; temperature: 30 C
Assay Readout: protein stability index
Answer with a bare number; do not write a unit.

# Sequence Entry, Value Reported
records = [
    ("SVSRIFRTFSCY", 0.224),
    ("NVVIGLHLLVYI", 0.227),
    ("PSDVLERVIRLL", 0.168),
    ("TYYPLNRSRFIG", 0.139),
    ("WLWYSPIAFTAL", 0.107),
    ("CCLGVIASFIVW", 0.254),
    ("SRVGAGVVRGVG", 0.493),
    ("RFFFSSFPLLIS", 0.199),
]

Entry `SREQANTVYRLI` ; protein stability index = 0.3

Entry `GRWGGYVGREWG` ; protein stability index = 0.458

###

# System: Saccharomyces cerevisiae
# Experiment Notes: protein stability index of tFT-peptide fusion (C-terminal peptide) (PSI (0-1 scale)); higher = more stable (slower turnover)
# Settings: genetic background: wild type; temperature: 30 C
// reported protein stability index per item
Answer with a bare number; do not write a unit.

Below, each entry is followed by its recorded protein stability index result.
# Sequence Entry, protein stability index
measured = [
    ("LPPPLVPPLPSP", 0.702),
    ("NFFTLTRCTLFI", 0.667),
    ("GECASVFSSGFF", 0.72),
    ("DICFTPGVVNAS", 0.659),
    ("RRCCLDPGGLLS", 0.607),
    ("LPRPTRLRTTPA", 0.685),
    ("FFVFMAKLRTCN", 0.0754),
    ("GFEWWCQSVSVG", 0.688),
    ("PPPSPPSVPRAS", 0.643),
]

Entry `HQLSQYEGARTL` ; protein stability index = 0.733

###

# System: Saccharomyces cerevisiae
# Experiment Notes: protein stability index of tFT-peptide fusion (C-terminal peptide) (PSI (0-1 scale)); higher = more stable (slower turnover)
# Settings: genetic background: wild type; temperature: 30 C
Mark Condition not met for protein stability index values under 0.7, and Condition met for everything at or above.

Check out these entries, answers already filled in.
# Sequence Entry, Qualitative Label
data = [
    ("GWVWILGRGRGR", "Condition not met"),
    ("WGVSARDPVFKE", "Condition not met"),
]

# check: protein stability index of `ETKSDRHDRTGT` is greater than or equal to 0.7
Condition not met

###

// reported protein stability index per item
# System: Saccharomyces cerevisiae
# Experiment Notes: protein stability index of tFT-peptide fusion in deletion strain of DOA10 (PSI (0-1 scale)); higher = more stable (slower turnover)

Below, each entry is followed by its recorded protein stability index result.
# Sequence Entry, protein stability index
data = [
    ("AITLPMCPLLLRQ", 0.634),
    ("RVTCLDAIYFRI", 0.655),
    ("CGVSLPILLFFR", 0.622),
    ("TSLRVLLPLYFR", 0.654),
    ("CLVSLPWLLFFR", 0.65),
    ("GLYHCSVGCWFR", 0.674),
    ("CLVSNPILLFFR", 0.661),
    ("GLQMCSVGCWFR", 0.656),
]

GET /values?item= `GLTMCSVGCWFR` &system= Saccharomyces cerevisiae returns protein stability index: 0.674

GET /values?item= `RVTRLKAIYFRI` &system= Saccharomyces cerevisiae returns protein stability index: 0.32

GET /values?item= `RSLRVPLPLYFR` &system= Saccharomyces cerevisiae returns protein stability index: 0.687

###

# System: Saccharomyces cerevisiae
# Experiment Notes: protein stability index of tFT-peptide fusion (C-terminal peptide) (PSI (0-1 scale)); higher = more stable (slower turnover)
# Settings: genetic background: wild type; temperature: 37 C
Assay Readout: protein stability index
Answer with a bare number; do not write a unit.

Below, each entry is followed by its recorded protein stability index result.
# Sequence Entry, Assay Readout, Value Reported
rows = [
    ("FCVLLFYCFFFF", "protein stability index", 0.335),
    ("SFGLICFLILCG", "protein stability index", 0.301),
    ("SRNSSRYLLLVS", "protein stability index", 0.405),
    ("RFFFSSFPLLIS", "protein stability index", 0.307),
    ("LPIFWVWFSVFR", "protein stability index", 0.397),
]

Entry `FSPSHMLRIFCY` ; protein stability index = 0.282

###

# System: Saccharomyces cerevisiae
# Experiment Notes: protein stability index of tFT-peptide fusion (C-terminal peptide) (PSI (0-1 scale)); higher = more stable (slower turnover)
# Settings: genetic background: wild type; temperature: 30 C
// reported protein stability index per item

Below, each entry is followed by its recorded protein stability index result.
# Sequence Entry, System Under Test, protein stability index
data = [
    ("GGLNIGIGYSVG", "Saccharomyces cerevisiae", 0.643),
    ("KNSKNIRNKTNE", "Saccharomyces cerevisiae", 0.711),
    ("RARPGRACPGAP", "Saccharomyces cerevisiae", 0.755),
]

GET /values?item= `LLSPLFCYSSRS` &system= Saccharomyces cerevisiae returns protein stability index: 0.646

GET /values?item= `VILCSCSFVLRP` &system= Saccharomyces cerevisiae returns protein stability index: 0.401

GET /values?item= `HSTEKGIMLNEY` &system= Saccharomyces cerevisiae returns protein stability index: 0.704

GET /values?item= `RMGAEDTGCRRP` &system= Saccharomyces cerevisiae returns protein stability index: 0.657

GET /values?item= `SPPHSPSALPPP` &system= Saccharomyces cerevisiae returns protein stability index: 0.587

GET /values?item= `NVVIGLHLLVYI` &system= Saccharomyces cerevisiae returns protein stability index: 0.326

These entries and their values trace back to the supplement of paper PMC10724198.
